Origin of the recorded values: ChEMBL document CHEMBL1201862

// reported GI50 for each item listed
Test system: NCI-H23
assay_details: NCI tumour cell line growth inhibition, 48 h
Activity calls are given as the source filed them. No stated cut-off is given here; in the data, active = GI50 up to about 1.1 µM and inactive = higher.

Examples from the recorded data:
1) CSc1ccc(/C=C2/C[N+](C)(C)C/C(=C/c3ccc(SC)cc3)C2=O)cc1    > 10 µM (inactive)
2) Cc1nc2c(o1)C(=O)c1ccccc1/C2=N/c1ccccn1    11.5 µM (inactive)
3) Nc1ccc(-c2nc3ccccc3s2)cc1C#Cc1ccccc1    20.9 µM (inactive)
4) NC(=O)c1ccc([N+](=O)[O-])cc1    > 100 µM (inactive)
5) O=C1/C(=C/c2ccc(Cl)cc2)N=C(c2ccccc2)N1c1ccc(S(=O)(=O)Nc2nccs2)cc1    52.2 µM (inactive)

Given COc1cc(/C=C2\C[C@H]3[C@@H]4CC=C5C=C(N6CCCC6)CC[C@]5(C)[C@H]4CC[C@]3(C)C2=O)cc(OC)c1OC , state its recorded GI50.
2.52 µM (inactive)

Given CCOC(=O)C1Cc2c(cc3c4c(cccc24)N(C(C)=O)C3)N(C)C1 (stereo not given) , state its recorded GI50.
> 100 µM (inactive)

Given N#C/C(C(=O)Nc1ccccc1)=C(/N)N1CCCC1 , state its recorded GI50.
> 100 µM (inactive)

Given C/C(=N\NC(=N)N)C(CN(CC(C)C)CC(C)C)C(=O)Nc1ccc(C)cc1C (stereo not given) , state its recorded GI50.
> 100 µM (inactive)

Given CC1(C)C(=O)N=C(N)N1C(=O)OCc1ccccc1 , state its recorded GI50.
> 100 µM (inactive)

====

Tested on: OVCAR-3
assay_details: NCI tumour cell line growth inhibition, 48 h
The source made the active and inactive calls. Rule as the data show it: active = GI50 up to about 1.1 µM and inactive = higher.
assay_readout: GI50

1. CCCCCCCCCc1cc(=O)c2ccc(OCc3ccccc3)cc2o1    > 100 µM (inactive)
2. Cn1c2ccccc2n2c3ncccc3c(=O)cc12    50.2 µM (inactive)
3. CC(=O)C1Cn2c(nc3ccccc32)C[Se]1 (stereo unspecified)    2.22 µM (inactive)
4. CCOP(=O)(OCC)c1cc(-c2ccccc2)ccc1N    > 100 µM (inactive)

Given Cn1c2ccccc2n2c(=O)c3cccnc3c(C#N)c12 , state its recorded GI50.
> 100 µM (inactive)

Given CN(C)CCNC(=O)c1c2ccccc2cc2ccccc12 , state its recorded GI50.
93.8 µM (inactive)

====

// reported GI50 for each item listed
Tested on: BT-549
assay_details: NCI tumour cell line growth inhibition, 48 h
The source made the active and inactive calls. Rule as the data show it: active = GI50 up to about 1.1 µM and inactive = higher.

Given O=C1C2=Cc3ccccc3CCN2c2ccccc21 , state its recorded GI50.
13.8 µM (inactive)

====

// reported GI50 for each item listed
Test system: RXF 393
assay_details: NCI tumour cell line growth inhibition, 48 h
Calls of active or inactive are those of the source. Cut-off read from the data, not from the text of the source: active = GI50 up to about 1.1 µM and inactive = higher.

1) CCN(CC)CCNc1ccc2nc(C)n3c4ccc(OC)cc4c(=O)c1c23    4.07 µM (inactive)
2) C/C=C(/CBr)CCC(Br)C(C)(C)Cl.C/C=C(\CBr)CCC(Br)C(C)(C)Cl (stereo not given)    > 10 µM (inactive)
3) NC(CCCCN/C=C1/N=C(c2ccccc2)OC1=O)C(=O)O (stereo not given)    > 100 µM (inactive)
4) N#C/C(C(=O)Nc1ccccc1)=C(/N)N1CCCC1    > 100 µM (inactive)

Given Cc1nc2c3c(ncn2n1)Oc1c(c(-c2ccccc2)nn1-c1ccccc1)C3c1ccc(Cl)cc1 (stereo not given) , state its recorded GI50.
72.3 µM (inactive)

====

Tested on: HOP-62
assay_details: NCI tumour cell line growth inhibition, 48 h
Calls of active or inactive are those of the source. Rule as the data show it: active = GI50 up to about 1.1 µM and inactive = higher.
Your answer must be one of the following: 1 = active, -1 = inactive

1. Cc1nc2c3c(ncn2n1)Oc1c(c(-c2ccccc2)nn1-c1ccccc1)C3c1ccc(Cl)cc1 (centres undefined)    -1

Just curious, what result did O=C(Cc1ccccc1)NN1C(=O)/C(=C\c2ccc([N+](=O)[O-])cc2)S/C1=N\c1ccccc1 get here?
-1

Just curious, what result did O=C1CSC(c2ccccc2[N+](=O)[O-])N1c1ccc(-n2c(-c3ccccc3)nc3ccccc3c2=O)cc1 (centres undefined) get here?
-1

Just curious, what result did N#Cc1c(-c2ccccc2)c(C#N)c(=O)n(NS(=O)(=O)c2ccccc2)c1O get here?
-1

Just curious, what result did COc1cc(C2c3cc4c(cc3OC(O)C2C)OCO4)cc(OC)c1OC (centres undefined) get here?
1

Just curious, what result did O=C1C(c2ccccc2)=C(c2ccccc2)C(c2ccc(Cc3ccc(C4=C(c5ccccc5)C(=O)C(c5ccccc5)=C4c4ccccc4)cc3)cc2)=C1c1ccccc1 get here?
-1

Just curious, what result did Nc1nc(N)c(N=O)c(Nc2ccc(I)cc2)n1 get here?
-1

Just curious, what result did Cl/C(=N\c1cccc2ccccc12)N(c1ccccc1)c1ccccc1 get here?
-1

Just curious, what result did COc1cc(C2Oc3cc(-c4oc5cc(O)cc(O)c5c(=O)c4O)ccc3OC2CO)ccc1O (centres undefined) [DEHYDROSILYLBIN] get here?
-1

====

System: HL-60
assay_details: NCI tumour cell line growth inhibition, 48 h
Active and inactive are the calls of the source. Rule as the data show it: active = GI50 up to about 1.1 µM and inactive = higher.
assay_readout: GI50

Examples from the recorded data:
1. N#Cc1[nH]c(=O)n(-c2ccc([N+](=O)[O-])cc2)c1N    > 10 µM (inactive)
2. CC(=O)c1sc2c(c1OC(=O)c1ccco1)c(=O)n(-c1ccccc1)c(=S)n2-c1ccccc1    19.8 µM (inactive)
3. O=C(c1ccc(Cl)cc1Cl)N(/N=C/C=C/c1ccccc1)c1nnc(-c2ccccc2)c(-c2ccccc2)n1    > 100 µM (inactive)
4. CCOC(=O)C(NC(=O)c1ccccc1)(N1CCN(c2cc3c(cc2F)c(=O)c(C(=O)O)cn3CC)CC1)C(F)(F)F (centres undefined)    20 µM (inactive)

Given COC(=O)n1c(C)c(C=O)c2ccc(OC)cc21 , state its recorded GI50.
31.3 µM (inactive)

Given Cc1nc2c3c(ncn2n1)Oc1c(c(-c2ccccc2)nn1-c1ccccc1)C3c1ccc(Cl)cc1 (centres undefined) , state its recorded GI50.
> 10 µM (inactive)

Given CC1=C2C(=O)c3ccccc3C2=C(C)S(=O)(=O)O1 , state its recorded GI50.
> 10 µM (inactive)

Given O=C(O)[C@H]1NC[C@@H]2ON=C(Br)[C@@H]21 , state its recorded GI50.
> 100 µM (inactive)

Given NNC(=O)C(=O)N/N=C(\CCC(=O)Nc1ccc(Cl)cc1)Cc1nc2ccccc2s1 , state its recorded GI50.
4.34 µM (inactive)

====

System: HCT-15
// assign rule met if GI50 falls strictly below 10 µM, else rule not met (ties count as rule not met)

Determine whether this compound shows GI50 lower than 10 µM (ties excluded): CCOC(=O)Cc1ccc(Nc2nc3cc(F)c(F)cc3nc2C(=O)OCC)cc1
rule not met

====

Tested on: LOX IMVI
assay_details: NCI tumour cell line growth inhibition, 48 h
The source made the active and inactive calls. Cut-off read from the data, not from the text of the source: active = GI50 up to about 1.1 µM and inactive = higher.
Your answer must be one of the following: TRUE = active, FALSE = inactive

Example entries and their recorded answers appear below.
1) C=CC(=O)N1C/C(=C\c2ccc(N(C)C)cc2)C(=O)/C(=C/c2ccc(N(C)C)cc2)C1    FALSE
2) OCCN(CCO)c1cccc(N(CCO)CCO)c1    FALSE
3) CC(=O)c1c(C)n(C)c2c1nnc1ccccc12    FALSE
4) CC1=CC[C@H](C)C(C)(C)C1/C=C/C(C)=C/CC[C@@]1(CO)[C@H](CCCO)/C(=C(/C)C=O)CC[C@]1(C)O (stereo not given in full)    TRUE

# ---- query compound ----
Just curious, what result did Cc1cccc(C)c1NC(=O)C(C#N)C1=C(Cl)C(=O)c2ccccc2C1=O (stereo not given) get here?
FALSE

====

// reported GI50 for each item listed
Tested on: OVCAR-8
assay_details: NCI tumour cell line growth inhibition, 48 h
Calls of active or inactive are those of the source. Rule as the data show it: active = GI50 up to about 1.1 µM and inactive = higher.

Given O=C1/C(=C/c2ccccc2O)N=C(c2ccccc2)N1C1Nc2cc3c(cc2S1)NC(N1C(=O)/C(=C/c2ccccc2O)N=C1c1ccccc1)S3 (centres undefined) , state its recorded GI50.
30.7 µM (inactive)

Given O=c1c2ccccc2c(=O)n2n1-c1cccc(c1)CSSCc1cccc-2c1 , state its recorded GI50.
> 10 µM (inactive)

Given CSc1ccc(C(=O)C(=O)c2ccc(SC)s2)s1 , state its recorded GI50.
> 10 µM (inactive)

Given Cn1nc(-c2ccccc2)c(C(=O)/C=C/c2ccc(F)cc2)c(N2CCCC2)c1=O , state its recorded GI50.
15.1 µM (inactive)

Given C=CCc1ccccc1C1CC2(C(=O)OC)OC1C(C(=O)OC)=C2C(=O)OC (centres undefined) , state its recorded GI50.
> 10 µM (inactive)

Given CCCCCCCCCCCCOC(=N)N1CCOCC1 , state its recorded GI50.
16.4 µM (inactive)

Given COc1cc2cc3c4c(cc(OC)c(OC)c4c2cc1OC)CCN3C(=O)N(C)C , state its recorded GI50.
> 100 µM (inactive)

Given COc1ccc(-c2nc(-c3cnccn3)n(C/C=C/c3ccccc3)n2)cc1 , state its recorded GI50.
47.9 µM (inactive)

Given NNC(=O)C(=O)N/N=C(\CCC(=O)Nc1ccc(Cl)cc1)Cc1nc2ccccc2s1 , state its recorded GI50.
> 100 µM (inactive)

Given O=c1c2ccccc2nc2[nH][nH]c(=S)n12 , state its recorded GI50.
> 100 µM (inactive)

Given Cc1ccc(S(=O)(=O)NC(=O)NC(CO)C(=O)O)cc1 (centres undefined) , state its recorded GI50.
> 100 µM (inactive)

Given O=C(N(C1=CCCC1)N(c1ccccc1)c1ccccc1)C(F)(F)F , state its recorded GI50.
29.9 µM (inactive)

Given O=C(O)C(=Cc1ccc(-c2ccccc2)cc1)C(=O)O , state its recorded GI50.
16.6 µM (inactive)

Given Nc1nnc2ccc(Cl)cc2[n+]1[O-] , state its recorded GI50.
24.9 µM (inactive)
